# credit: patent US20060252807A1

Biological target: active p38 alpha enzyme (Upstate Biotechnology) (Homo sapiens, UniProt Q16539)
Construct: purchased Upstate Biotechnology
Sequence (Q16539 whole entry): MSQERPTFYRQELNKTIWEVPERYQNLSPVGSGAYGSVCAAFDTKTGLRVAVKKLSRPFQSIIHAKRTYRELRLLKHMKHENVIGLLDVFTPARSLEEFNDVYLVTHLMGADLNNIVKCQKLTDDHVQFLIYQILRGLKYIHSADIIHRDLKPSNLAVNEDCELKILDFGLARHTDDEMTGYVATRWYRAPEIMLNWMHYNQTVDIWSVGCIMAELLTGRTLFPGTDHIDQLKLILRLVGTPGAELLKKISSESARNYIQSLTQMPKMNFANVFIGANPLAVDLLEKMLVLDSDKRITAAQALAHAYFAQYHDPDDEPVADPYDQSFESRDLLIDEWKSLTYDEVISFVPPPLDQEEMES
Experiment: p38α biochemical assay (ATP turnover, luminescent detection, Cambrex PKlight)
Details: p38α biochemical assay, Table 1 Biological Activity
pIC50: −log10 of the molar value.
endpoint: pIC50

These recorded examples may help you get a feel for the data.
CC(C)NC(=O)c1csc(-c2c(-c3ccc(F)cc3)noc2CNC(=O)COc2ccccc2C=O)n1 :: < 6.00
CC(C)NC(=O)c1csc(-c2c(-c3ccc(F)cc3)noc2CNC(=O)c2ccc(Cl)nc2)n1 :: < 6.00
CC(C)NC(=O)n1ccc(-c2c(-c3ccc(F)cc3)noc2CN2CCOCC2)n1 :: ≥ 6.00
Cc1c(C(=O)NCc2nc(-c3ccc(F)cc3)c(-c3nc(C(=O)NC(C)C)cs3)o2)oc2ccccc12 :: < 6.00
COC(=O)c1ccc(C(=O)NCc2onc(-c3ccc(F)cc3)c2-c2nc(C(=O)NC(C)C)cs2)cc1 :: < 6.00
COc1cc(OC)c(C(=O)NCc2onc(-c3ccc(F)cc3)c2-c2nc(C(=O)NC(C)C)cs2)cc1OC :: < 6.00
CC(C)NC(=O)c1csc(-c2c(-c3ccc(F)cc3)noc2CNC(=O)C(NC(=O)OC(C)(C)C)C(C)C)n1 (stereo not drawn) [Example 773] :: < 6.00
CC(C)NC(=O)c1csc(-c2oc(CNC(=O)c3ccc(Cl)c(Br)c3)nc2-c2ccc(F)cc2)n1 :: < 6.00

Query string: Consider the compound shown here: `CC(C)NC(=O)c1csc(-c2c(-c3ccc(F)cc3)noc2CNC(=O)Cc2ccc3c(c2)OCO3)n1` What is its recorded pIC50?
Result string: < 6.00

Query string: Consider the compound shown here: `C#CCNC(=O)c1csc(-c2[nH]c(CN3CCNCC3)nc2-c2ccc(F)cc2)n1` What is its recorded pIC50?
Result string: ≥ 6.00

Query string: Consider the compound shown here: `CC(C)NC(=O)c1csc(-c2oc(CN3CCN(C(=O)COc4ccccc4C=O)CC3)nc2-c2ccc(F)cc2)n1` What is its recorded pIC50?
Result string: < 6.00
